Cited source: ChEMBL document CHEMBL4513216

Assignment: determine reported cytotoxicity at 10 µM for the given molecules.
# test description: Toxicity liver stage against HepG2, at 10uM
# Assay type: cell-based
# Design: test concentration 10 uM, cell line HepG2-A16-CD81EGFP
# study conditions: human, HepG2-A16-CD81EGFP cells; read-out: INHIBITION
Form entry: value (%) — number only.

// cytotoxicity at 10 µM value for c1cnc(N2CCCC3(CCN(CC4CCOC4)CC3)C2)nc1 (centres undefined) : -2.21

// cytotoxicity at 10 µM value for COC(=O)NCC(=O)N1CCCC(c2ncc[nH]2)C1 (centres undefined) : 2.42

// cytotoxicity at 10 µM value for Cn1cnnc1S(=O)(=O)C1CCN(S(=O)(=O)c2ccc(Cl)s2)CC1 : -4.72

// cytotoxicity at 10 µM value for CN1C(=O)C2(CCNCC2)c2cc(F)ccc21 : -115

// cytotoxicity at 10 µM value for Cc1nn(C)c(N2CCOCC2)c1CNC1CCS(=O)(=O)C1 (centres undefined) : -3.99

// cytotoxicity at 10 µM value for O=C(O)c1cc(C2=CCCCC2)cc(S(=O)(=O)NCc2ccccn2)c1 : -46.6

// cytotoxicity at 10 µM value for CN(CCC#N)C(=O)Cc1csc(-c2ncccn2)n1 : -0.343

// cytotoxicity at 10 µM value for CSC1(CNc2ncc(Br)cn2)CCOCC1 : -8.93

// cytotoxicity at 10 µM value for CCOc1ncccc1Cn1cc(-c2cncnc2)nn1 : 2.38

// cytotoxicity at 10 µM value for O=S1(=O)NC[C@H]2CCN(Cc3ccccc3)CC[C@H]21 : -10.5

// cytotoxicity at 10 µM value for Cc1noc(C)c1C(=O)N1CCCC1c1c(C)nn(C)c1C (centres undefined) : -5.68

// cytotoxicity at 10 µM value for Cc1cc(CN2CCC(CNC(=O)c3ccc(O)c(Cl)c3)C2)[nH]n1 (centres undefined) : 13.3

// cytotoxicity at 10 µM value for COc1ccc(C)cc1NC(=O)c1coc(C)n1 : -7.66

// cytotoxicity at 10 µM value for Cc1cccc(S(=O)(=O)NCC(C)N2CCN(C)CC2)c1Cl (centres undefined) : -4.52

// cytotoxicity at 10 µM value for CCN1C[C@@H]2CN(C(=O)NCc3ccccc3)CCC[C@]2(C(=O)O)C1 : 3.47

// cytotoxicity at 10 µM value for CN(C)C(=O)[C@H]1C[C@H]2CN(CCc3ccccc3)C[C@@H]1O2 : -94.2

// cytotoxicity at 10 µM value for CCc1cnc(N)nc1NCCCn1cc(Cl)cn1 : 3.5

// cytotoxicity at 10 µM value for O=C(NCC1CCOC1)Nc1ccc(Oc2ccc(F)cc2)nc1 (centres undefined) : -13.7

// cytotoxicity at 10 µM value for Cc1cc(C)nc(NC2CC(=O)N(C(C)(C)C)C2)n1 (centres undefined) : -5.81

// cytotoxicity at 10 µM value for CN(C)c1cc(C(=O)N2CCCCC2CNS(C)(=O)=O)ccn1 (centres undefined) : -16

// cytotoxicity at 10 µM value for CCC(=O)N1CCC(Cc2cc(Nc3ncccn3)ncn2)CC1 : -4.05

// cytotoxicity at 10 µM value for CN(C)CCOCc1cncc2c1CCN(C1CCOCC1)C2 : 4.62

// cytotoxicity at 10 µM value for CN(C)c1ccc(C(=O)N2CCC(c3n[nH]c(C4CC4)n3)CC2)cc1 : -2.42

// cytotoxicity at 10 µM value for CN(Cc1cccs1)C(=O)CN1CCCC1Cn1cncn1 (centres undefined) : -15.6
